Assay: Pharmacokinetics (biodistribution 1-24 h) in non-tumor bearing mice
Type: in vivo
Settings: female, BALB/c, mouse, spleen, 200 umol, total radioactivity; 24 hours after injection, ^64Cu; read-out: Biodistribution Spleen
observable: tissue uptake at 24 h (%ID/g)
Numbers only, in %ID/g.

Q. GET /values?readout=tissue uptake at 24 h&item= C[C@@H](O)[C@@H]1NC(=O)[C@H](CCCCN)NC(=O)[C@@H](Cc2c[nH]c3ccccc23)NC(=O)[C@H](Cc2ccc(O)cc2)NC(=O)[C@@H](NC(=O)[C@@H](Cc2ccccc2)NC(=O)CCC(C(=O)O)N2CCN(CC(=O)O)CCN(CC(=O)O)CC2)CSSC[C@@H](C(=O)N[C@H](CO)[C@@H](C)O)NC1=O (single isomer, unassigned) [[^61/^64Cu]Cu-NODAGA-TOC, metal not drawn]
A. 0.07
